Entry source: ChEMBL document CHEMBL1126456

molecular target: UniProtKB P12527; assay: Inhibition of 5-Lipoxygenase of rat basophilic leukemia cells
Sequence (P12527 whole entry): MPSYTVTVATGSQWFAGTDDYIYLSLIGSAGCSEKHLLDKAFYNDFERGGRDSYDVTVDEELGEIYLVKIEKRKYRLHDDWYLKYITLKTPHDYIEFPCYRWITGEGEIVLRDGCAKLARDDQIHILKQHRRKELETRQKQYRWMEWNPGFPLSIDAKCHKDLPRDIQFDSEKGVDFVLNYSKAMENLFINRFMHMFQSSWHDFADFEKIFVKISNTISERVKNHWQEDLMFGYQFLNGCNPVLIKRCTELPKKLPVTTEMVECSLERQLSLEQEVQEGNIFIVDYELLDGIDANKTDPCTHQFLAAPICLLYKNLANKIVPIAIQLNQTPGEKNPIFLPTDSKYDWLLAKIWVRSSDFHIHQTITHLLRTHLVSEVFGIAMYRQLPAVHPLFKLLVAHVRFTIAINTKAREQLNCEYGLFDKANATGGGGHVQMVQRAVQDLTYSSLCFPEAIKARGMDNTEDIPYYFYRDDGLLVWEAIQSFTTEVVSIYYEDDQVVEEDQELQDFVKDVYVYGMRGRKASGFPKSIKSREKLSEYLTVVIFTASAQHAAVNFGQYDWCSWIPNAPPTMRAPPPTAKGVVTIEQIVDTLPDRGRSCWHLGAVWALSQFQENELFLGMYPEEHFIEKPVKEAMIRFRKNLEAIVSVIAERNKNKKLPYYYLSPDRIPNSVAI
MEASURED_ATTRIBUTE: IC50 (nM)
Record the value in nM, omitting the unit from your answer.

QUERY: Request - read-out IC50 | tested on UniProtKB P12527 | compound "C/C(=C/N(O)Cc1ccccc1)C(=O)c1ccc(F)cc1"
RESULT: 300
